Molecular target: CCR7 (Homo sapiens, UniProt P32248)
Construct: The cells were then disrupted with a Polytron homogenizer and centrifuged at 30,000× g for 10 min; endogenous in cells
Sequence (P32248 25-378): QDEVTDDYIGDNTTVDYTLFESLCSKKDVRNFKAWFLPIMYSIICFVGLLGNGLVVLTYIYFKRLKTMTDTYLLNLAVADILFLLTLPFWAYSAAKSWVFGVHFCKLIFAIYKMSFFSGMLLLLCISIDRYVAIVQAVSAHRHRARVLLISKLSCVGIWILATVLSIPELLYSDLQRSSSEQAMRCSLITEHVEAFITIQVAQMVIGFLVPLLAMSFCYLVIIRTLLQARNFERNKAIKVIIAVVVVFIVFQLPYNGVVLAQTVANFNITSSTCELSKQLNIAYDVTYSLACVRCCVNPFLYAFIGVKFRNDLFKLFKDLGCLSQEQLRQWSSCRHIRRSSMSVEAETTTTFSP
Assay: Binding assay: 125I-MIP-3β binding to HUT-78 cell membranes (scintillation proximity)
Conditions: binding assay of Example 1, HUT-78 membranes, read-out: IC50, inhibition of binding of MIP-3β to CCR7
attributeMeasured: pIC50
Keep in mind that pIC50 stands for -log10 of concentration in molar terms.

| compound | pIC50 |
| --- | --- |
| O=S1(=O)COc2cc(NCCCc3cnco3)ccc2N1 [Example 3] | 5.82 |

Proceeding to the next compound to report its pIC50.
Consider Cc1cc(C)c2c(=O)n(CC(O)CN(C)CC3OCCCO3)sc2c1 (centres unmarked) [Example 4] . Its measured pIC50 is 5.66
